# Tested on: Bacillus subtilis
# test_description: Antimicrobial activity against Bacillus subtilis NCIM 2921 assessed as growth inhibition after 24 hr by serial double dilution method
# Assay type: functional, organism-based
# condition_parameters: NCIM 2921, 24 h
measured_metric: IC50 (µM)

> print(dat)
                                   compound  measured.metric  value.unit  measured
1  O=C(O)c1cn(C2CC2)c2cc(N3CCNCC3)c(F)cc2c1=O [CIPROFLOXACIN]             IC50          µM       4.7

###

Overview of reported IC50 across a group of molecules:
# Tested on: HBL-100
# test_description: Anticancer activity against Homo sapiens (human) HBL100 cells after 72 hr by MTT assay
# Assay type: functional, cell-based
# condition_parameters: HBL-100, 72 h
measured_metric: IC50 (nM)

> print(dat)
                                    molecule  measured
 1       S=C(NN=C(c1ccccc1)c1ccccc1)N1CCNCC1       340
 2           COc1ccc(/C=N/NC(=S)N2CCNCC2)cc1      1620
 3            Cc1ccc(/C=N/NC(=S)N2CCNCC2)cc1       800
 4  CN(Cc1cnc2nc(N)nc(N)c2n1)c1ccc(C(=O)N[C@@H](CCC(=O)O)C(=O)O)cc1 [METHOTREXATE]        40
 5            Oc1ccc(/C=N/NC(=S)N2CCNCC2)cc1       180
 6        C/C(=N\NC(=S)N1CCNCC1)c1ccc(Cl)cc1       260
 7               S=C(N/N=C/c1ccccc1)N1CCNCC1      2410
 8  C/C(=N\NC(=S)N1CCNCC1)c1cccc([N+](=O)[O-])c1       990
 9         C/C(=N\NC(=S)N1CCNCC1)c1ccc(O)cc1       540
10            C/C(=N/NC(=S)N1CCNCC1)c1ccccc1       290
11           S=C(N/N=C/c1ccc(Cl)cc1)N1CCNCC1      1600
